# credit: the supplement of paper PMC10498489

- Test system: HepG2 Srxn1-GFP reporter cells (+30 nM CDDO-Me)
- method.description: Srxn1-GFP intensity median modified Z-score relative to plate median; higher = stronger NRF2 / oxidative stress reporter activation, active = hit call of the paper
- protocol.conditions: 10 µM; exposure time: 24h
About 330 (14%) of roughly 2,300 compounds showed activity. Only a sample is shown.
readout: Srxn1-GFP intensity median modified Z-score

compound: Oc1ccc2c3c1OC1[C@@H](O)CC[C@@]4(O)[C@@H](C2)N(CC2CCC2)CC[C@]314 (some centres undefined) [euspeclibcmpd978]
measured.result: 0.208

compound: C[C@]12CCC3C(CC[C@H]4C[C@@H](O)CC[C@]34C)C1CCC2=O (some centres undefined) [euspeclibcmpd2371]
measured.result: -0.083

compound: C#CC1(O)CCC2C3CC=C4CC(=O)CCC4(C)C3CCC21C (centres undefined) [euspeclibcmpd545]
measured.result: -0.576

compound: CCC(C)(C)O [euspeclibcmpd964]
measured.result: -0.585

compound: N=C(N)NN [euspeclibcmpd930]
measured.result: -0.0849

compound: COc1c2c(cc3c1OCO3)CC[N+](C)=C2 [euspeclibcmpd2418]
measured.result: 0.209

compound: CC(C)(C#N)O[C@@H]1O[C@H](CO)[C@@H](O)[C@H](O)[C@H]1O [euspeclibcmpd1356]
measured.result: 0.0487

compound: COc1ccc2c(c1O)-c1c(OC)c(OC)cc3c1[C@H](C2)N(C)CC3 [euspeclibcmpd1537]
measured.result: -0.343

compound: C[N+](C)(C)CCCCCCCCCC[N+](C)(C)C [euspeclibcmpd902]
measured.result: 4.92

compound: O=C1NC(=O)C(=O)C(=O)N1 [euspeclibcmpd1767]
measured.result: 0.258

compound: COc1ccc(O)c(C(C)(C)C)c1 [euspeclibcmpd2212]
measured.result: 0.639

compound: O=C1CC2OCC=C3CN4CC[C@]56c7ccccc7N1C5[C@H]2[C@H]3CC46 (some centres undefined) [euspeclibcmpd327]
measured.result: -0.00366

compound: CCC1(CC)C(=O)NC(=S)NC1=O
measured.result: 1.23

compound: C=C(C)[C@@H]1[C@H]2OC(=O)[C@@H]1[C@]1(O)C[C@H]3O[C@]34C(=O)O[C@H]2[C@]14C [euspeclibcmpd1351]
measured.result: 17.9

compound: COC(C)CC(=O)Nc1ccc([N+](=O)[O-])c(C(F)(F)F)c1 (centres undefined)
measured.result: 1.79

compound: CCCCOC(=O)c1ccccc1C(=O)OCCCC [euspeclibcmpd1242]
measured.result: -0.441

compound: N#Cc1[nH]n(-c2c(Cl)cc(C(F)(F)F)cc2Cl)c(=N)c1[S+]([O-])C(F)(F)F (centres undefined) [euspeclibcmpd821]
measured.result: -0.323

compound: O=C(CCCN1CCC2(CC1)C(=O)NCN2c1ccccc1)c1ccc(F)cc1 [euspeclibcmpd405]
measured.result: 10.2

compound: COC[C@]12CN(C=O)C3[C@@H]4[C@H](OC)C1[C@]3(C1CC3(O)C(OC)C(O)[C@]4(OC(C)=O)C1C3OC(=O)c1ccccc1)[C@@H](OC)C[C@H]2O (some centres undefined) [euspeclibcmpd1413]
measured.result: -0.00565

compound: NCc1cccnc1 [euspeclibcmpd1239]
measured.result: -0.224

compound: CN(C)C1C(=O)C(C(N)=O)C(=O)[C@@]2(O)C(=O)C3C(=O)c4c(O)cccc4[C@@](C)(O)[C@H]3[C@H](O)[C@@H]12 (some centres undefined) [euspeclibcmpd225]
measured.result: -0.444

compound: COc1cc2c3cc1Oc1c(OC)c(OC)cc4c1[C@@H](Cc1cccc(c1)Oc1ccc(c(O)c1)C[C@@H]3N(C)CC2)N(C)CC4 [euspeclibcmpd1812]
measured.result: 2.31

compound: CN(C)C1C(=O)C(C(N)=O)C(=O)[C@@]2(O)C(=O)C3C(=O)c4c(O)ccc(Cl)c4[C@@](C)(O)[C@H]3C[C@@H]12 (some centres undefined) [euspeclibcmpd61]
measured.result: 0.0407

compound: C[C@@H]([C@H](O)c1ccccc1)N(C)C [euspeclibcmpd1255]
measured.result: 0.2

compound: O=C(O)C1CCN1 (centres undefined)
measured.result: 1.24

compound: CC1NCCc2cc(O)c(O)cc21 (centres undefined) [euspeclibcmpd2171]
measured.result: -0.549

compound: CC(C)c1cccc(C(C)C)c1O [euspeclibcmpd699]
measured.result: -0.02

compound: COc1ccc(C(=O)O)cc1OC [euspeclibcmpd2003]
measured.result: -0.455

compound: CC(Cc1ccc(O)cc1)NCC(O)c1cc(O)cc(O)c1 (centres undefined) [euspeclibcmpd366]
measured.result: 0.124

compound: C#CC(C)(O)CC (centres undefined) [euspeclibcmpd1276]
measured.result: 1.99

compound: COc1ccc2c(c1)[nH]c1c(C)nccc12 [euspeclibcmpd1501]
measured.result: 1.98

compound: C#C[C@]1(O)CCC2C3CC=C4CC(=O)CCC4C3CC[C@@]21CC (some centres undefined) [euspeclibcmpd2251]
measured.result: -0.375

compound: N=c1cc[nH]cc1 [euspeclibcmpd895]
measured.result: -0.471

compound: CC1=C2CCC3C(CC[C@]4(C)C(=O)CCC34)[C@@]2(C)CCC1=O (some centres undefined) [euspeclibcmpd1163]
measured.result: -0.15
